This collection of values is drawn from PubChem BioAssay (NCI).

# Test system: OVCAR-3 ovarian
# assay-name: NCI tumour cell line growth inhibition, 48 h
experimental-readout: TGI

Field: example entries. Status: answers known.
NCCN1C(=O)c2ccccc2C1c1ccc(Cl)cc1 (stereo not given) : > 100 µM
COc1ccc(C(=O)C#Cc2c[nH]c(=O)[nH]c2=O)cc1 : 21.6 µM
CC(=O)NC1=NC(=O)/C(=C/c2ccc(/C=C3/C(=O)N=C(NC(C)=O)N3C)cc2)N1C : > 100 µM

## Input Look up TGI for this compound: CC([O-])=C1C(=O)c2ccccc2C1=O.CC([O-])=C1C(=O)c2ccccc2C1=O.CC[O-].CC[O-].[Ti+4]
## Output > 100 µM

## Input What do you get for O=C1CSC(c2cccc(Cl)c2)N1c1ccc(-c2ccc(-n3c(-c4ccccc4)nc4ccccc4c3=O)cc2)cc1 (stereo not given) ?
## Output > 100 µM

## Input Another compound: COC(=O)C(C(=O)OC)C(Br)C(Br)C(Br)c1ccccc1 (stereo not given)
## Output 7.63 µM

## Input Now consider CC(=O)c1ccc(NC(=O)C(=O)C(C#N)CC(C)(C)C=O)cc1 (stereo not given) and answer again.
## Output > 100 µM
